Target: recombinant human IDE (Homo sapiens, UniProt P14735)
Sequence (P14735 1-1019): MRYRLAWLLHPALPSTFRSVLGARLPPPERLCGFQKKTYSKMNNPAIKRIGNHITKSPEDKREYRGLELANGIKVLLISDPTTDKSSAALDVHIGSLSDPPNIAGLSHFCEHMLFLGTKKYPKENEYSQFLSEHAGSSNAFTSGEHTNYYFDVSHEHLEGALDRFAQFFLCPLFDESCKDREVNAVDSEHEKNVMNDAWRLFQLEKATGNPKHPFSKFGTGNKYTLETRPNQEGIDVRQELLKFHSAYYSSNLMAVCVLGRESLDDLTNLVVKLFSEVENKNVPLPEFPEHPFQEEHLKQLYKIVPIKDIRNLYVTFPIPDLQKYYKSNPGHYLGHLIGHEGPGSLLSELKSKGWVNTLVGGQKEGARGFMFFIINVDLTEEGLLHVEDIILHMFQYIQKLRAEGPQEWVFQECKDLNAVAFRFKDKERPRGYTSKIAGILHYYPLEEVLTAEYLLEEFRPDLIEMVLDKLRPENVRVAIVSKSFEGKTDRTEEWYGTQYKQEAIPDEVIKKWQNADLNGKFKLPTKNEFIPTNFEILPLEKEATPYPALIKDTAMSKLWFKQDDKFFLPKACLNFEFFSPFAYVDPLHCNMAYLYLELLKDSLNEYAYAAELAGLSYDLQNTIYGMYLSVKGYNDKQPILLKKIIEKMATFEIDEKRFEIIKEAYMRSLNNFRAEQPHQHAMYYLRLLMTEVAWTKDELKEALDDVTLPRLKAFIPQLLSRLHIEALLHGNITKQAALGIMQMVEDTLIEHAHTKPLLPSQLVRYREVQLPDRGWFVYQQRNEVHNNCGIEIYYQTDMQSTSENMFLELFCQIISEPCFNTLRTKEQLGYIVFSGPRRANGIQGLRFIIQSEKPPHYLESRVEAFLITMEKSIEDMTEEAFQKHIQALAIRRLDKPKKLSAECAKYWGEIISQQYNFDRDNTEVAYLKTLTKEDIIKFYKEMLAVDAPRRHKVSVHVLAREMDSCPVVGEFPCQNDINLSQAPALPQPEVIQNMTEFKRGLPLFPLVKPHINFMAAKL
Assay: IDE fluorescence polarization-based degradation assays
Type: biochemical
Settings: read-out: Ki Gluc.; substrate glucagon; Ki from IC50 via Cheng-Prusoff
measured-metric: pKi
Remember the convention: pKi equals -log10 of concentration in molar.

Some solved entries appear below for comparison.
{"molecule": "O=S(=O)(Nc1cccn(O)c1=S)c1ccc(Cl)s1 [Compound 43]", "pKi": 5.70}
{"molecule": "On1ccccc1=S [Compound 5, 1,2-hydroxypyridinethione]", "pKi": 3.66}

Value wanted: pKi (recombinant human IDE (Homo sapiens, UniProt P14735)) of entry NS(=O)(=O)c1cccn(O)c1=S [Compound 8, 3-sulfonamide-1,2-HOPTO]
3.94

Value wanted: pKi (recombinant human IDE (Homo sapiens, UniProt P14735)) of entry O=S(=O)(Nc1cccn(O)c1=S)c1ccc(Br)s1 [Compound 44]
5.70

---

// reported Ki for each item listed
Target: recombinant human IDE (Homo sapiens)
Sequence (P14735 1-1019): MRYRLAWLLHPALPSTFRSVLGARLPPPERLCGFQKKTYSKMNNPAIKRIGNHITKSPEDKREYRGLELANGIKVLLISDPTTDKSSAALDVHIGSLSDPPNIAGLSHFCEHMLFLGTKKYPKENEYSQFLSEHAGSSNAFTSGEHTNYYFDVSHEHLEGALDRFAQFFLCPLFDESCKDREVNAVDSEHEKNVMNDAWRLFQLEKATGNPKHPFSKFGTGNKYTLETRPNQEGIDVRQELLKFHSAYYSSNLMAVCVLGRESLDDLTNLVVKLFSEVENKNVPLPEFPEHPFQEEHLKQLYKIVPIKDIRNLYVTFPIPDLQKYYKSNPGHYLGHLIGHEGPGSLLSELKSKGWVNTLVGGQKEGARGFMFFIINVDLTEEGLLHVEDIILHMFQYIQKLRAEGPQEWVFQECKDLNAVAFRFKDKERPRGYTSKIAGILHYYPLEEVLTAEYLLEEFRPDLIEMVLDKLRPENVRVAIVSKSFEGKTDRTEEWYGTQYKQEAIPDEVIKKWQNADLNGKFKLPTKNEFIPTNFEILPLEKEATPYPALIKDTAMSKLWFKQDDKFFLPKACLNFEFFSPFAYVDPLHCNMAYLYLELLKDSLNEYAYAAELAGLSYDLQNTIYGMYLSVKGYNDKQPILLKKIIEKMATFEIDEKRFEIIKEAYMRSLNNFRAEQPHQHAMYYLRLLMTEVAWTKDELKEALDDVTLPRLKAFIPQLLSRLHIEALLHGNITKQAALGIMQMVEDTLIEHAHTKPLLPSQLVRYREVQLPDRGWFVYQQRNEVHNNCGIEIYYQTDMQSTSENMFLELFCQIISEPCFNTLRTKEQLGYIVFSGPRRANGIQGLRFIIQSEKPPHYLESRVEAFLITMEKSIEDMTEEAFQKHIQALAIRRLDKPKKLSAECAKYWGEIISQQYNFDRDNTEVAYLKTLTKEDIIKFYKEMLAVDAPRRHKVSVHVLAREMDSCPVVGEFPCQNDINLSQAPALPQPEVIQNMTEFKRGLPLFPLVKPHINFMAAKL
Test: IDE fluorescence polarization-based degradation assays
Format: biochemical
Conditions: Ki Amylin, substrate amylin; Ki from IC50 via Cheng-Prusoff
The figure you give is taken to be in µM; do not add the unit.

Some solved entries appear below for comparison.
{"compound": "CC1(C)[C@H]2CC[C@]1(CS(=O)(=O)Nc1cccn(O)c1=S)C(=O)C2 [Compound 37]", "measurement-target": "recombinant human IDE (Homo sapiens)", "unit-of-measurement": "µM", "Ki": 19}
{"compound": "O=S(=O)(Nc1ccc(=S)n(O)c1)c1cccs1 [Compound 42]", "measurement-target": "recombinant human IDE (Homo sapiens)", "unit-of-measurement": "µM", "Ki": 64}

Please report the recorded Ki for O=C(Nc1cccn(O)c1=S)c1cccs1 [Compound 31] .
62

Please report the recorded Ki for O=S(=O)(Nc1cccn(O)c1=S)C1CC1 [Compound 36] .
35

Please report the recorded Ki for O=S(=O)(Nc1ccn(O)c(=S)c1)c1cccs1 [Compound 41] .
27

Please report the recorded Ki for O=S(=O)(Nc1ccc[nH]c1=S)c1cccs1 [Compound 48] .
84

Please report the recorded Ki for O=S(=O)(Nc1cccn(O)c1=S)c1cccs1 [Compound 29] .
10

Please report the recorded Ki for Cc1cc(NS(=O)(=O)c2cccs2)c(=S)n(O)c1 [Compound 34] .
13

---

// reported Ki for each item listed
Biological target: recombinant human IDE (Homo sapiens, UniProt P14735)
Assay: IDE fluorescence polarization-based degradation assays
Assay type: biochemical
Conditions: read-out: Ki Aβ; substrate Aβ; Ki from IC50 via Cheng-Prusoff
The figure you give is taken to be in µM; do not add the unit.

Please report the recorded Ki for NS(=O)(=O)c1cccn(O)c1=S [Compound 8, 3-sulfonamide-1,2-HOPTO] .
61

Please report the recorded Ki for O=S(=O)(Nc1cccn(O)c1=S)c1ccc(Br)s1 [Compound 44] .
3

Please report the recorded Ki for On1ccccc1=S [Compound 5, 1,2-hydroxypyridinethione] .
108

Please report the recorded Ki for O=S(=O)(Nc1cccn(O)c1=S)c1ccc(Cl)s1 [Compound 43] .
3

---

Molecular target: recombinant human IDE (Homo sapiens, UniProt P14735)
Sequence (P14735 1-1019): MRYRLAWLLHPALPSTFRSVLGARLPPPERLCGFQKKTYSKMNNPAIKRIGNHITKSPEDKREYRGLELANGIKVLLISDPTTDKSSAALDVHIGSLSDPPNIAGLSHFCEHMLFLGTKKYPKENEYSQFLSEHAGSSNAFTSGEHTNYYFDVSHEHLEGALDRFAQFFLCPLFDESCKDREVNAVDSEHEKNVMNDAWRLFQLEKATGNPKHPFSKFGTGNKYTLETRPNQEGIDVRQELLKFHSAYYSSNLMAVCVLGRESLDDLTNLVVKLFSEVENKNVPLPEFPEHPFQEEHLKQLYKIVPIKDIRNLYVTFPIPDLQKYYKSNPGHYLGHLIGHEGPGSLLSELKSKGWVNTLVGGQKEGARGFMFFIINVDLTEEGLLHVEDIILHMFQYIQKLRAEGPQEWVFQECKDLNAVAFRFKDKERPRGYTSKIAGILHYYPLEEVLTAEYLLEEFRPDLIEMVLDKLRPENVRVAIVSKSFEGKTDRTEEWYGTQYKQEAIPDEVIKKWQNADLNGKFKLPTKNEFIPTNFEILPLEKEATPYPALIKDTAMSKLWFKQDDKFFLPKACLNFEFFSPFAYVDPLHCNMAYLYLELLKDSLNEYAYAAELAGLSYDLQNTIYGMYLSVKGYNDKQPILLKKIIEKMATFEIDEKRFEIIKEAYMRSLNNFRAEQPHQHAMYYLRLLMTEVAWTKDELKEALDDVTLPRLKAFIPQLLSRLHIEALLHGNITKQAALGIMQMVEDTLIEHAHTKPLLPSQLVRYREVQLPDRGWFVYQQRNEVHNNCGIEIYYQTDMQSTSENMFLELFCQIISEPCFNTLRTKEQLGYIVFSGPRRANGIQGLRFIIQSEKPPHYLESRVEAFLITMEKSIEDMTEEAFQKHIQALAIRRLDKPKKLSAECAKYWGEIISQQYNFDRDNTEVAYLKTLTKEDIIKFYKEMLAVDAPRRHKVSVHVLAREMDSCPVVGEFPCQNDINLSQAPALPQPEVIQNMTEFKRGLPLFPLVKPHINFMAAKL
Experiment: IDE fluorescence polarization-based degradation assays
Type: biochemical
Conditions: Ki Insulin, substrate insulin; Ki from IC50 via Cheng-Prusoff
Hi! Just check whether Ki is below 20 µM. Below gives Condition met, equal or above gives Condition not met.

{"compound": "Cc1ccc(NS(=O)(=O)c2cccs2)c(=S)n1O [Compound 35]", "assigned-label": "Condition not met"}
{"compound": "Cn1cc(S(=O)(=O)Nc2cccn(O)c2=S)cn1 [Compound 39]", "assigned-label": "Condition not met"}
{"compound": "Cn1ccc(S(=O)(=O)Nc2cccn(O)c2=S)n1 [Compound 38]", "assigned-label": "Condition met"}
{"compound": "O=S(=O)(Nc1cccn(O)c1=S)c1cccc2nsnc12 [Compound 45]", "assigned-label": "Condition not met"}
{"compound": "O=S(=O)(Nc1ccc(=S)n(O)c1)c1cccs1 [Compound 42]", "assigned-label": "Condition not met"}

Please indicate whether the reported Ki of O=S(=O)(Nc1cccn(O)c1=S)c1cccs1 [Compound 29] is strictly below 20 µM.
Condition met

Please indicate whether the reported Ki of Cc1cc(NS(=O)(=O)c2cccs2)c(=S)n(O)c1 [Compound 34] is strictly below 20 µM.
Condition met
